Cited source: patent US11096930B2

Answer each item with its documented IDO1 Enzyme Assay, pIC50.
test system: IDO1 (Homo sapiens (Human))
Sequence (P14902 whole entry): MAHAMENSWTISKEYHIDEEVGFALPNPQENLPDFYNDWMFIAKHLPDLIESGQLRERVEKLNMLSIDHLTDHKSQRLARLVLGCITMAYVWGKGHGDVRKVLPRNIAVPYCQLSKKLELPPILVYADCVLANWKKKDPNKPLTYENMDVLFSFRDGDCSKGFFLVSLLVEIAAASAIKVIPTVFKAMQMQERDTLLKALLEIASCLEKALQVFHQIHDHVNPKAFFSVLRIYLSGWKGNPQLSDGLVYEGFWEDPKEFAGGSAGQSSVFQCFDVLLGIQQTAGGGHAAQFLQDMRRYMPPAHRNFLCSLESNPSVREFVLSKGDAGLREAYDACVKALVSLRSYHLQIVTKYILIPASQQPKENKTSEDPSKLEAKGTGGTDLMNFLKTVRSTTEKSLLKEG
assay remarks: IDO1 Enzyme Assay
Type: biochemical
protocol conditions: HIS-tagged IDO1, fluorescence
Write the value as a bare number.

Challenge: What measured IDO1 Enzyme Assay, pIC50 goes with `O=C1NCCC12CCN(c1cc(C(F)(F)F)cc3cncn13)CC2` ?
Response given: 5.1

Challenge: What measured IDO1 Enzyme Assay, pIC50 goes with `CC1=NC2(CCN(c3cc(C(F)(F)F)cc4cncn34)CC2)C(=O)N1` ?
Response given: 5.7

Challenge: What measured IDO1 Enzyme Assay, pIC50 goes with `CC(=O)N1CCC2(CC1)CCN(c1cc(C(F)(F)F)cc3cncn13)CC2` ?
Response given: 5.2

Challenge: What measured IDO1 Enzyme Assay, pIC50 goes with `O=C1OCCC12CCN(c1cc(C(F)(F)F)cc3cncn13)CC2` ?
Response given: 5.7

* * *

Answer each item with its documented IC50.
test system: IDO (Homo sapiens (Human), UniProt P14902)
assay remarks: SKOV3 (IDO) cell based assay for detection of kynurenine
protocol conditions: SKOV3 cells, IDO induced by IFN-γ, 48 hours, read-out: pIC50 SKOV3 (IDO) cell based assay (converted)
Answers without a unit are incomplete; give the number and then its unit.

Challenge: What measured IC50 goes with CC1(C)CN(c2cc(C(F)(F)F)cn3cncc23)CCC12NC(=O)NC2=O (centres unmarked) [Example 12] ?
Response given: 1.17 µM

Challenge: What measured IC50 goes with CC1(C)CN(c2cc(C(F)(F)F)cc3cncn23)CCC12NC(=O)N(c1ccccc1)C2=O (centres unmarked) [Example 15] ?
Response given: 5.62 µM

Challenge: What measured IC50 goes with O=C1NC2(CCN(c3cc(C(F)(F)F)cc4cncn34)CC2)C(=O)N1CC1CCOCC1 [Example 7] ?
Response given: 3.63 µM

Challenge: What measured IC50 goes with CC1(C)CN(c2cc(Cl)cc3cncn23)CCC12NC(=O)NC2=O (centres unmarked) [Example 11] ?
Response given: 3.72 µM

Challenge: What measured IC50 goes with CN1C(=O)NC2(CCN(c3cc(C(F)(F)F)cc4cncn34)CC2)C1=O [Example 6] ?
Response given: 6.17 µM
